Test system: ATP;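 also: ATP exposure 15 min at 22 °C before imaging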
Assay: switch fluorescence ratio, 500 uM ATP over buffer (Cy3 cluster intensity, sum of 5 cycles each) (fold (ratio)); higher = stronger signal-on switching upon ATP binding; sequences stand for … in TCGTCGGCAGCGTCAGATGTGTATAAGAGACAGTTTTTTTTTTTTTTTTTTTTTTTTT…TC
Settings: aptamer strand: ATP DNA aptamer (quencher-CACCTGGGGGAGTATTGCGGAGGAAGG + anchor), 100 nM annealed; ATP concentration: 500 uM
Answer each item with its documented switch fluorescence ratio.
Give the value as a plain number.

Form: sequence = "GGGGTAATTG" ; switch fluorescence ratio = 1.01

Form: sequence = "GTGTTTTATA" ; switch fluorescence ratio = 0.977

Form: sequence = "GGTGCATGAC" ; switch fluorescence ratio = 1.39

Form: sequence = "TTGGTCAATC" ; switch fluorescence ratio = 1.04

Form: sequence = "ATTCGTCGTC" ; switch fluorescence ratio = 0.983

Form: sequence = "ATGCAATCTT" ; switch fluorescence ratio = 1.11

Form: sequence = "GGGTGGTTTG" ; switch fluorescence ratio = 1.01

Form: sequence = "GGAAGAGGAG" ; switch fluorescence ratio = 0.983

Form: sequence = "CCGCGTCTGT" ; switch fluorescence ratio = 1.24

Form: sequence = "ATGGCTTGTC" ; switch fluorescence ratio = 1.03

Form: sequence = "AATATGGAGG" ; switch fluorescence ratio = 0.985

Form: sequence = "GGGGAATGGC" ; switch fluorescence ratio = 1.05

Form: sequence = "TTGTTGTGGG" ; switch fluorescence ratio = 0.986

Form: sequence = "TGTATTATGG" ; switch fluorescence ratio = 0.968

Form: sequence = "ATGGTAATTT" ; switch fluorescence ratio = 0.977

Form: sequence = "ATTATCAGCC" ; switch fluorescence ratio = 1.02

Form: sequence = "TGAGATGGTG" ; switch fluorescence ratio = 0.974

Form: sequence = "CTGTTGGGGT" ; switch fluorescence ratio = 0.988

All values here come from the supplement of paper PMC10126150.
